method-description: Tmax in male Sprague-Dawley rat at 2 mg/kg, iv measured after 8 hrs by LC-MS analysis
Assay type: ADME, organism-based
experimental-parameters: in vivo
readout-name: Tmax (min)
State just the number; it will be interpreted in min.

// Tmax lookup, key: `COc1ccc2cc(-c3ccc(NS(=O)(=O)C(F)(F)F)cc3)ncc2c1O`
4.98

---

method-description: Half-life in male Sprague-Dawley rat at 100 mg/kg, po measured after 8 hrs by LC-MS analysis
Type: ADME, organism-based
experimental-parameters: in vivo
readout-name: half-life (h)
State just the number; it will be interpreted in h.

// half-life lookup, key: `COc1ccc2cc(-c3ccc(NS(=O)(=O)C(F)(F)F)cc3)ncc2c1O`
2.8

---

method-description: AUC (0 to t) in male Sprague-Dawley rat at 2 mg/kg, iv measured after 8 hrs by LC-MS analysis
Type: ADME, organism-based
experimental-parameters: in vivo
readout-name: AUC(0-t) at 8 h (ng·h/mL)
State just the number; it will be interpreted in ng·h/mL.

// AUC(0-t) at 8 h lookup, key: `COc1ccc2cc(-c3ccc(NS(=O)(=O)C(F)(F)F)cc3)ncc2c1O`
916

---

assay-system: Tryptophan 2,3-dioxygenase (Homo sapiens, UniProt P48775)
Sequence (P48775 whole entry): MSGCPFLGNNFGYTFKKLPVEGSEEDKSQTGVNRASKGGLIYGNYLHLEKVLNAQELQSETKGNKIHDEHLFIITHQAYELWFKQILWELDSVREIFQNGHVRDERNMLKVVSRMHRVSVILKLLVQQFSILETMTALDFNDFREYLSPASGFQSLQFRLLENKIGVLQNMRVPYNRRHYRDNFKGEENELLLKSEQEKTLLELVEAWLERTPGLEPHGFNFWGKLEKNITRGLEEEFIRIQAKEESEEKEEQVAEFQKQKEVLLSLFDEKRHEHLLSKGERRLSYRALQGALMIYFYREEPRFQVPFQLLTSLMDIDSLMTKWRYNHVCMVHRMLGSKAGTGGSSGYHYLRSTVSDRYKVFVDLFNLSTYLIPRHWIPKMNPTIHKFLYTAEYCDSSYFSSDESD
pIC50: −log10 of the molar value.
Hi all, reminder that labels come from pIC50, split as LOW (below 5), MEDIUM (5 to below 6), HIGH (6 or more)

Kindly identify the class of `COc1ccc2cc(-c3ccc(C(=O)Nc4ccccc4)cc3)ncc2c1O` .
HIGH

Note, next up: `COc1ccc2cc(-c3ccc(NC(=O)c4ccc(C(F)(F)F)cc4)cc3)ncc2c1O`
MEDIUM

Note, next up: `COc1ccc2cc(-c3ccccc3)ncc2c1O`
HIGH

Note, next up: `COc1ccc2cc(-c3ccc(NC(C)=O)cc3)ncc2c1O`
HIGH

Note, next up: `COc1ccc2cc(-c3cc4ccccc4o3)ncc2c1OC`
LOW

Note, next up: `COc1ccc2cc(-c3ccc(NS(=O)(=O)C(F)(F)F)cc3)ncc2c1O`
HIGH

Note, next up: `COc1ccc2cc(-c3ccc(C)cc3)ncc2c1O`
LOW

Note, next up: `COc1ccc2cc(-c3ccc(NC(=O)c4ccccc4)cc3)ncc2c1O`
HIGH

Note, next up: `COc1ccc2nc(-c3ccccc3)ccc2c1O`
MEDIUM

Note, next up: `COc1ccc2nc(-c3ccccc3)ncc2c1O`
LOW

Note, next up: `COc1ccc2cc(-c3cccs3)ncc2c1OC`
MEDIUM

Note, next up: `COc1ccc2cc(-c3cccnc3)ncc2c1OC`
LOW

Note, next up: `COc1ccc(-c2cc3ccc(OC)c(O)c3cn2)cc1`
HIGH

Note, next up: `COc1ccc2cc(-c3ccc(Br)cc3)ncc2c1OC`
LOW

Note, next up: `COc1ccc2cc(-c3ccccc3)ncc2c1OC`
HIGH

Note, next up: `COc1ccc2cc(C34C[C@H]5C[C@@H](C3)C[C@@H](C4)C5)ncc2c1OC`
MEDIUM

Note, next up: `COc1ccc2cc(-c3ccc(NC(=O)c4ccc(F)cc4)cc3)ncc2c1O`
LOW

Note, next up: `COc1ccc2cc(-c3ccc(NS(C)(=O)=O)cc3)ncc2c1O`
HIGH

Note, next up: `COc1ccc2cc(-c3ccc(F)cc3)ncc2c1O`
LOW

Note, next up: `COc1ccc(-c2ccc3c(O)c(OC)ccc3n2)cc1`
LOW

Note, next up: `COc1cccc(C(=O)Nc2ccc(-c3cc4ccc(OC)c(O)c4cn3)cc2)c1`
MEDIUM

Note, next up: `Oc1ccc2cc(-c3ccc4c(c3)OCO4)ncc2c1`
LOW

Note, next up: `COc1ccc2cc(-c3ccc4c(c3)OCO4)ncc2c1O`
HIGH

Note, next up: `COc1ccc2cc(-c3ccc(C(C)(C)C)cc3)ncc2c1OC`
LOW
